Listed next: entries and their corresponding pIC50.
# assayed system: HLA-A*0202 (human)
# assay overview: competition with 125I-labelled standard peptide for purified HLA, gel filtration
pIC50: −log10 of the molar value.
recorded endpoint: pIC50

[
  {
    "binder": "LMYSLVHNL (modifications not checked) [peptide 1126.14 (PSM.469)]",
    "recorded endpoint": "pIC50",
    "val": 9.40
  },
  {
    "binder": "FLTLSVTWIGV (modifications not checked) [peptide 1419.27 (PSA.3.V11)]",
    "recorded endpoint": "pIC50",
    "val": 8.52
  },
  {
    "binder": "VLAGGFFLV (modifications not checked) [peptide 1389.20 (PSM.27.V9)]",
    "recorded endpoint": "pIC50",
    "val": 9.40
  },
  {
    "binder": "MMNDQLMFL (modifications not checked) [peptide 1126.01 (PSM.663)]",
    "recorded endpoint": "pIC50",
    "val": 9.10
  }
]

Where do the numbers come from? From patent US20070020327A1.
